The reported measurements were obtained from patent US20190040115A1.

biological target: T1, HLA-A*02:01 (human); experiment: UV peptide exchange ELISA (anti-b2m); yield grade: + >10%, ++ >20%, +++ >50, ++++ >75%
T1 construct: captured on streptavidin plates; also called peptide-receptive MHC molecules
Reported peptide exchange yield values follow for various binders

Past entries and their recorded results:
>  <binder>
FAYDGKDYIA

>  <peptide exchange yield>
> 75%

$$$$
>  <binder>
VLKADVVLL

>  <peptide exchange yield>
20 to 50%

$$$$

Consider the additional binder presented here.
Request: peptide exchange yield lookup needed for `ALDSGFNSV` , thanks.
Result: > 75%
